- EXPERIMENTAL_SYSTEM: T1, h-FXIIa (human, UniProt P00748 20-615)
- T1 construct: also called factor XIIa
- T1 sequence (looked up): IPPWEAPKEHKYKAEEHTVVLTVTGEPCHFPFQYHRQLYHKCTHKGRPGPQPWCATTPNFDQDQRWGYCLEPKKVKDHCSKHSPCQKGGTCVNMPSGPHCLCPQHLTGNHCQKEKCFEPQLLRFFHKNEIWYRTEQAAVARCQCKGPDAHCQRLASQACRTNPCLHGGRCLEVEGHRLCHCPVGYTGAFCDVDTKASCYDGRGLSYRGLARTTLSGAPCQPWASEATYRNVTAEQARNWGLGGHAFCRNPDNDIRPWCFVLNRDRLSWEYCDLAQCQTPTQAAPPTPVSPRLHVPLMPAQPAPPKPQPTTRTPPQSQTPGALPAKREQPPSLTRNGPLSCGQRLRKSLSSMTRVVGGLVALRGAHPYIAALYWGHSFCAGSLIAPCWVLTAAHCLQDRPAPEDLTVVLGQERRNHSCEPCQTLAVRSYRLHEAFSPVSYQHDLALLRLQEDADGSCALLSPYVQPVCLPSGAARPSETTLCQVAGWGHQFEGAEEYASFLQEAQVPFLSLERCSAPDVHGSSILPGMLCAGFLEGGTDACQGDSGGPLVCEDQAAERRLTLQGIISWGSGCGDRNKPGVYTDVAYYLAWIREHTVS
- ASSAY_NOTES: S2302 hydrolysis by h-FXIIa, fit of residual activity
pKi: −log10 of the molar value. Where no end group is shown, it is not given here.
Give True when the value for pKi is at least 6. Give False when it is less.

Reference set (3 entries):
RVCPRILMECKKDSDCLAECVCLEHGYCG (disulfide (positions not given here), Synthetic, folded peptide) [TICA 2]: True
HEERVCPRILMKCKKDSDCLAECVCLEHGYCG (Synthetic congener; also called HEE-TICA1) [TICA 3]: False
Corn trypsin inhibitor (other, UniProt P01088 29-138, looked up, also called CTI) SAGTSCVPGWAIPHNPLPSCRWYVTSRTCGIGPRLPWPELKRRCCRELADIPAYCRCTALSILMDGAIPPGPDAQLEGRLEDLPGCPREVQRGFAATLVTEAECNLATIS: True

Query: State whether the measured pKi reaches 6, counting equality as reaching it, for HEERVCPKILMECKKDSDCLAECICLEHGYCG (Synthetic congener; also called HEE-TICA4) [TICA 5]
Result: False

Value source: patent US20140296146A1
